The origin of these recorded values is PubChem BioAssay (NCI).

Test system: CAKI-1 renal
methodSummary: NCI tumour cell line growth inhibition, 48 h; in the data active means GI50 below about 0.43 µM; inactive means the rest
Pick one and only one: true (1) (active), false (0) (inactive)

The following compounds have reported results that may help.
[[record]]
compound = "NCCCn1c2c(c3ccccc3c1=O)C(=O)c1cc3c(cc1-2)OCO3"
assignedcategory = "true (1)"

[[record]]
compound = "Clc1ccc(Nc2ccnc(NCCNc3ccnc4cc(Cl)ccc34)n2)cc1"
assignedcategory = "false (0)"


Q. Outcome? COc1ccc(/C=C(\C#N)n2nnc3cc(Cl)ccc32)cc1
A. false (0)

Q. Outcome? O=C1c2cccnc2-c2nc(-c3ccccn3)cc3c2c1nc1ccccc13
A. true (1)

Q. Outcome? CCNCCNc1cc(-c2ccc(Cl)cc2)c(C#N)c2nc3ccccc3n12
A. false (0)

Q. Outcome? C=C(CN1CCc2ccccc2C1)c1ccc(/C=C/C(=O)Nc2ccccc2N)cc1
A. false (0)

Q. Outcome? CS(=O)(=O)c1ccc(Oc2nccc(-c3c(-c4ccc(F)cc4)ncn3C3CCNCC3)n2)cc1
A. false (0)

Q. Outcome? CC1/C=C/C=C/CC/C=C/C=C/C=C/C=C/C(OC2OC(C)C(O)C(N)C2O)CC2OC(CC(O)C(O)CCC(O)CC(O)CC(O)CC(=O)OC(C)C(C)C1O)CC(O)C2C(=O)O (centres undefined)
A. false (0)

Q. Outcome? N#Cc1c2ccccc2c2nnc3cc(C(F)(F)F)ccc3n12
A. false (0)

* * *

Quick reference for TGI among some molecules
Tested on: COLO 205 colon
methodSummary: NCI tumour cell line growth inhibition, 48 h

Worked cases, TGI given:
[[record]]
molecule = "Clc1ccccc1-c1nn2c(CCCCCCCCc3nnc4sc(-c5ccccc5Cl)nn34)nnc2s1"
measuredon = "COLO 205 colon"
measurement = "> 100 µM"

[[record]]
molecule = "Cc1cc(N(CCC#N)CCC#N)ccc1N=Nc1ccccc1[N+](=O)[O-]"
measuredon = "COLO 205 colon"
measurement = "> 100 µM"

[[record]]
molecule = "CC1(C)C2CC1C(/C=N\\OCC(=O)O)=CC2=O (stereo not given)"
measuredon = "COLO 205 colon"
measurement = "> 100 µM"


Proceed to the following item.
Q. Look up TGI of COCC1N=C(c2ccc(OC)c(OCc3ccccc3)c2OC)O[C@H]1c1ccccc1 (stereo not given in full) and report it.
A. 41.8 µM

* * *

Quick reference for TGI among some molecules
Tested on: LOX IMVI melanoma
methodSummary: NCI tumour cell line growth inhibition, 48 h
Just the number please, in µM, no unit attached.

Worked cases, TGI given:
[[record]]
molecule = "Nc1c(O)c2c(c(O)c1Cl)C(=O)C=CC2=O"
readoutkind = "TGI"
readoutunits = "µM"
measurement = 16.4

[[record]]
molecule = "CC(SC(=S)N1CCCC1)C(=O)Nc1nnc(-c2ccc(Cl)cc2)o1 (stereo not given)"
readoutkind = "TGI"
readoutunits = "µM"
measurement = 54.8

[[record]]
molecule = "COc1c(O)cc2oc3cc(O)c(CC=C(C)C)c(O)c3c(=O)c2c1C/C=C(\\C)CCC=C(C)C"
readoutkind = "TGI"
readoutunits = "µM"
measurement = 10.5

[[record]]
molecule = "COc1ccc(-c2nc3sccn3c2/C=C/C(=O)c2cc(OC)c(OC)c(OC)c2)cc1OC"
readoutkind = "TGI"
readoutunits = "µM"
measurement = 10


Q. Look up TGI of CCCOP1(=O)C=C(C)C(Cl)=C(C)C1 (stereo not given) and report it.
A. 36.1
